Test system: human RNase H1
Assay: Screen of antisense compounds (gapped oligonucleotides, siRNA) in cells against human RNase H1
Format: cell-based
Design: concentration or dose not given beside the values
Details: percent inhibition of RNase H enzyme levels; target H1
Measure: % Inhib (%)

• AAGUUUGCCACAGAGGAUGAG [Si-H1] = 89.9
• CCTCCGATTCTTGTCCATGT (chemistry not fully specified) [ISIS 18178, DNA-like gapped 2′-MOE oligonucleotide against human RNase H1, coding] = 64.6
• AAGCCGAGCGUGGAGCCGGCG [Si-H1B] = 77.2
• TGCAGGCTATTTTCCACACC (2'-MOE gapmer, further chemistry not given here) [ISIS 18186, DNA-like gapped 2′-MOE oligonucleotide against human RNase H1, 3′UTR] = 86.8
• GCGCTTAACACCGCACTTCC (chemistry not fully specified) [ISIS 18173, DNA-like gapped 2′-MOE oligonucleotide against human RNase H1, 5′UTR] = 30.1
• TGGCTCAAGTTCTCCCAAGG (chemistry not fully specified) [ISIS 18184, DNA-like gapped 2′-MOE oligonucleotide against human RNase H1, 3′UTR] = 78.9
• TCTTCCAACCTTGAACCCAG (chemistry not fully specified) [ISIS 18182, DNA-like gapped 2′-MOE oligonucleotide against human RNase H1, coding] = 42.8
• CATCGCTCACTCCCGGCACC (chemistry not fully specified) [ISIS 18174, DNA-like gapped 2′-MOE oligonucleotide against human RNase H1, start codon] = 51.4
• CCTCATCCTCTGTGGCAAAC (chemistry not fully specified) [ISIS 18177, DNA-like gapped 2′-MOE oligonucleotide against human RNase H1, coding] = 71.9
• CGCCCAGGAAGTCTAATGCC (chemistry not fully specified) [ISIS 18180, DNA-like gapped 2′-MOE oligonucleotide against human RNase H1, coding] = 73.9
